assay_notes: NCI Yeast Anticancer Drug Screen. Data for the bub3 strain (AID 167)
settings: S. cerevisiae bub3 mutant strain, at 50.0 µM
About 79,000 compounds went through this panel and 15% of them were active in at least one assay; those are over-represented in the sample as a whole. Calls of active or inactive are those of the source. Rule as the data show it: active = growth inhibition above about 70%; inactive = the rest.
Write down one outcome, taken from True for active, False for inactive

Solved cases below.
{"compound": "CCOC(=O)c1ccc(C(C)C)cc1", "category": "True"}
{"compound": "CC(C)c1ccc(C(=O)C2CC2)cc1", "category": "False"}
{"compound": "CC(C)N=Cc1cc(Br)cc(Br)c1O.CC(C)N=Cc1cc(Br)cc(Br)c1O.[Co]", "category": "True"}

Lookup: Kindly provide the recorded test outcome for the following compound: `O=[N+]([O-])/C=C/c1cc2ccccc2[nH]1`
Found: True

Lookup: Kindly provide the recorded test outcome for the following compound: Cc1ccc[n+](CC(=O)C2CCC3C4CC=C5CC(O)CCC5(C)C4CCC23C)c1 (stereo unspecified)
Found: True

Lookup: Kindly provide the recorded test outcome for the following compound: COC(=O)C(C#N)C(c1ccccc1)c1c[nH]c2ccccc12 (stereo unspecified)
Found: False
